- assay.target: T1, CRBN, Q96SW2;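 note: pooled lentiviral library of zinc finger degron-EGFP fusions in mCherry-positive Jurkat cells, FACS-sorted after compound exposure, with degron abundance counted by next-generation sequencing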
- T1 chain: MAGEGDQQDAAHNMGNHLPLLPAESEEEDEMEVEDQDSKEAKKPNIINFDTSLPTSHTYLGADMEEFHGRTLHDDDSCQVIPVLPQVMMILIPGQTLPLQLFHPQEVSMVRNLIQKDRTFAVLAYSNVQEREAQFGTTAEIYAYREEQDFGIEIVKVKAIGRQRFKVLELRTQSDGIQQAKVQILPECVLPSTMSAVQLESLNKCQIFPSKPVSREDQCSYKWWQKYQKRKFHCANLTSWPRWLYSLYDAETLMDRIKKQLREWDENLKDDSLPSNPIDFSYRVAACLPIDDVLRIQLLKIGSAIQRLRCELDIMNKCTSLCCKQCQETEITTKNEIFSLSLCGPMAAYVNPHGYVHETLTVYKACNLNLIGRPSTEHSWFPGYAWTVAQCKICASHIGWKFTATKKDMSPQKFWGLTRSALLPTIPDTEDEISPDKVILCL
- method: log2 fold change of degron read counts, EGFP-low vs EGFP+ sorted cells (limma voom), compound-induced degradation; higher = more compound-induced degradation of the degron-EGFP fusion; degrons are variants of IKZF1/3 zinc finger 2; compound dose not given here
- condition.set: Jurkat; 18 h; compound: compound 22 (5-morpholino-thalidomide)
The full ranking holds about 8,300 sequences; the median of “log2 fold change of degron read counts, EGFP-low vs EGFP+ sorted cells (limma voom), compound-induced degradation” is about -1.1, and the highest 2% start at about 3.2. The sample as a whole holds a higher share of the highest values than the screen did.
Label rule, in plain words: log2 fold change of degron read counts of -0.4 and up is Yes, under -0.4 is No.

FDCEVCGAVFTQKGNLLRHIKL [46F_47D_49E_50V_52G_53A_54V_55F_67L_, Q9UKT9]	No
FKCNVCGANFTQKGNLLRHIKL [46F_47K_49N_50V_52G_53A_54N_55F_67L_, Q9UKT9]	No
FSCNICGACFTQKGNLLRHIKL [46F_47S_49N_50I_52G_53A_54C_55F_67L_, Q9UKT9]	Yes
FTCEVCGAVFTQKGNLLRHIKL [46F_47T_49E_50V_52G_53A_54V_55F_67L_, Q9UKT9]	Yes
FCCEVCGAVFTQKGNLLRHIKL [46F_47C_49E_50V_52G_53A_54V_55F_67L_, Q9UKT9]	Yes
FVCEVCGAVFTQKGNLLRHIKL [46F_47V_49E_50V_52G_53A_54V_55F_67L_, Q9UKT9]	Yes
FRCPICGHHFTQKGNLLRHIKL [46F_47R_49P_50I_52G_53H_54H_55F_67L_, Q9UKT9]	No
FQCEVCGAVFTQKGNLLRHIKL [46F_47Q_49E_50V_52G_53A_54V_55F_67L_, Q9UKT9]	Yes

For the next question, use this sequence.
Q: Could you verify whether the entry FQCEVCGAAFTQKGNLLRHIKL [46F_47Q_49E_50V_52G_53A_54A_55F_67L_, Q9UKT9] shows log2 fold change of degron read counts of no less than -0.4?
A: Yes
